In this section, each of the molecules is paired with its reported MIC.
system: Paenibacillus larvae; assay: Antimicrobial assay in BHI liquid medium, vegetative forms of Paenibacillus larvae (MIC); type: cell-based; conditions: Paenibacillus larvae, vegetative forms of Pl, liquid medium; read-out: MIC
endpointName: MIC (µM)

[[record]]
compoundstructurestring = "CCCCCCCCCCCCCCCC(=O)O"
experimentalsystem = "Paenibacillus larvae"
relationqualifier = ">"
experimentalresult = 78

[[record]]
compoundstructurestring = "CCCCCCCC/C=C\\CCCCCCCC(=O)O"
experimentalsystem = "Paenibacillus larvae"
relationqualifier = "="
experimentalresult = 3.5

[[record]]
compoundstructurestring = "CCCCCCCCCCCCCCCCOP(=O)([O-])OCC[N+](C)(C)C"
experimentalsystem = "Paenibacillus larvae"
relationqualifier = "="
experimentalresult = 7.4

[[record]]
compoundstructurestring = "CCCCCCCCCCCCCCCCCC(=O)O"
experimentalsystem = "Paenibacillus larvae"
relationqualifier = ">"
experimentalresult = 70

[[record]]
compoundstructurestring = "CCCCCCCCCCCCCCCCCC(=O)OC[C@@H](O)COP(=O)([O-])OCC[N+](C)(C)C"
experimentalsystem = "Paenibacillus larvae"
relationqualifier = ">"
experimentalresult = 9.5

[[record]]
compoundstructurestring = "CCCCCCCCCCCCCCCCCCOP(=O)([O-])OC1CC[N+](C)(C)CC1"
experimentalsystem = "Paenibacillus larvae"
relationqualifier = "="
experimentalresult = 4.3

[[record]]
compoundstructurestring = "CCCCCCCC/C=C\\CCCCCCCC(=O)OC[C@@H](O)COP(=O)([O-])OCC[N+](C)(C)C"
experimentalsystem = "Paenibacillus larvae"
relationqualifier = ">"
experimentalresult = 3.8

[[record]]
compoundstructurestring = "CCCCC/C=C\\C/C=C\\CCCCCCCC(=O)O"
experimentalsystem = "Paenibacillus larvae"
relationqualifier = "="
experimentalresult = 1.8

